# System: MS2 coat protein
# procedureSummary: apparent KD of MS2 coat protein; designed switch direction (-1 OFF switch, 1 ON switch): -1; higher = weaker reporter binding
# conditionSet: Eterna round: R95; input ligand: FMN 200 uM
readoutName: apparent KD of MS2 coat protein (nM)
Entry rule: numbers only, all in nM.

// known answers, use as guide
ACGUGAUAUCUGUCGGUGGACAUGAGGAUCACCCAUGUAAGCUUUCUGCUCGUCUUAUAACCCGGUGACAGACCUUC [Diteerquus] (puzzle: Sensor v3, turn-off variant 1)
45.3
AGUACUAACACGAAAGUGUUAGUACAAUAAGCUAGUGGAACAUGAGGAUCACCCAUGUCCUCAUUAGCUCGUCUUGU [Mat - Sensor v3 - Turn-off var 2 - D39] (puzzle: Sensor v3, turn-off variant 2)
16.2
AGAAAGCAAGGAUAUACGAGGAGAAGGUGGAAAGUUAAAGGACAUGAGGAUCACCCAUGUAGAAGGUGCGAGAA [JR_Exclu2_Sub043] (puzzle: Exclusion 2)
79.3
AAAUAAUAGAUAAAAUAAAACAUGAGGAUCACCCAUGUAGGCAGAUGAGGGUGAAACAAGCUUUUUGCUCGUCUUAU (puzzle: Sensor v3, turn-off variant 1)
63.9

Could you now look at the following sequence, please?
Please fill in: apparent KD of MS2 coat protein reported for GGUUGGCGAGGAUAUACAUGAGGAUCACCCAUGUGAGAAAAUAAGUGAGGAAAGAAAAGUAGAAGGCGCUGACG [Mat - Exclusion 3 - Mod of Salish D53] (puzzle: Exclusion 3) = 570

----------
# System: MS2 coat protein
# procedureSummary: apparent KD of MS2 coat protein, switch OFF state (with FMN for OFF switches, without FMN for ON switches); designed switch direction (-1 OFF switch, 1 ON switch): -1; higher = weaker reporter binding
# conditionSet: FMN input: 0 or 200 uM; Eterna round: R93 (includes R88 designs)
Returns Satisfied if the recorded apparent KD of MS2 coat protein is greater than or equal to 30 nM, and Not satisfied otherwise.

Examples with answers:
AGGAUGUCAGGAUAUGUGUAAAGAAUAAAACAAAUAACAACACAGAAGGGACAUGAGGAUCACCCAUGUUACCA [May 37]
Not satisfied
AAAAUAAAAGGAUAUAAAAAUAAAAGUCAGGAUAUAGGAAACUAGAAGGGACAUGAGGAUCACCCAUGUAAAAU [Meechl Ex4 R2 m1]
Satisfied

**Q:** Confirm if apparent KD of MS2 coat protein reported for the sequence CCUAUGUCAGGAUAUCAGUAGUAAAAAAAAAAAAUUACUACUGAGAAGGGACAUGAGGAUCACCCAUGUCACUU [EX4 311: Super Stable 11] is 30 nM or above.
**A:** Not satisfied

**Q:** Confirm if apparent KD of MS2 coat protein reported for the sequence AAAAAUGGAGGAUAUACAUGAGGAUCACCCAUGUGUAAAAAAAAUUACACAAAAGAAAGUAGAAGGCCAUAAAA [Ex 3 Warm] is 30 nM or above.
**A:** Satisfied

**Q:** Confirm if apparent KD of MS2 coat protein reported for the sequence AAAAAGGGAGGAUAUACAUGAGGAUCACCCAUGUAAAAAAAAAAAGGAGGGAGGGAAGGUAGAAGGCCCAAAAA [Excls3-IIi] is 30 nM or above.
**A:** Not satisfied

**Q:** Confirm if apparent KD of MS2 coat protein reported for the sequence AGUCAUACAGGAUAUACAUGAGGAUCACCCAUGUAUAUCCAAAAAAGGUGAUCCUCAUGUAGAAGGGUAUGACA [EX3 202: Super Stable 2] is 30 nM or above.
**A:** Not satisfied
